Measured LogP values are reported for all entries that follow.
test: Log P by HPLC on reversed phase, method [a], acidic range (0.1% formic acid); format: physicochemical; conditions: LC-UV, 0.1% formic acid in water and acetonitrile

Use these answered entries as a reference point.
O=C(Nc1cnn(-c2ccccc2)c1Br)c1cccnc1C(F)F [Example 135]    2.07^[a]
O=C(Nc1cnn(-c2ccc(Cl)c(Cl)c2)c1C(F)(F)F)c1ccc(Br)nc1C(F)F [Example 181]    4.19^[a]
CCc1c(NC(=O)c2cccnc2C(F)F)cnn1-c1cccc(C)c1 [Example 100]    2.34^[a]
O=C(Nc1cnn(-c2ccccc2F)c1C(F)F)c1cccnc1C(F)F [Example 33]    2.32^[a]

Problem: Return reported LogP; argument: Cc1cnc(C(F)F)c(C(=O)Nc2cnn(-c3cc(Cl)cc(Cl)c3)c2C(F)(F)F)c1 [Example 174]
Solution: 3.89^[a]

Problem: Return reported LogP; argument: O=C(Nc1cnn(-c2cccc(Cl)c2Cl)c1C(F)(F)F)c1cccnc1C(F)F [Example 94]
Solution: 3.11^[a]

Problem: Return reported LogP; argument: O=C(Nc1cnn(-c2cc(Cl)ccc2Cl)c1C(F)(F)F)c1ccc(Cl)nc1C(F)F [Example 176]
Solution: 3.76^[a]

Problem: Return reported LogP; argument: Cc1ccc(-n2ncc(NC(=O)c3cc(C)cnc3C(F)F)c2C(F)(F)F)cc1 [Example 101]
Solution: 3.13^[a]

Problem: Return reported LogP; argument: O=C(Nc1cnn(-c2ccc(F)cc2)c1Cl)c1cccnc1C(F)F [Example 190]
Solution: 2.14^[a]

----------
assay: Log P by HPLC on reversed phase, method [a], acidic range (0.1% formic acid); assay type: physicochemical; conditions: LC-UV, 0.1% formic acid in water and acetonitrile
assay.endpoint: LogP

Use these answered entries as a reference point.
N#Cc1c(NC(=O)c2cccnc2C(F)F)cnn1-c1ccccc1    2.28^[a]
O=C(Nc1cnn(-c2cccc(Cl)c2)c1-c1cccc(Cl)c1)c1cccnc1C(F)F    3.31^[a]
O=C(Nc1cnn(-c2ccc(Br)cc2)c1-c1cccc(Cl)c1)c1cccnc1C(F)F    3.46^[a]
CCc1c(NC(=O)c2cc(C)cnc2C(F)F)cnn1-c1cccc(C)c1    2.57^[a]

Problem: Return reported LogP; argument: `Cc1c(NC(=O)c2cccnc2C(F)F)cnn1-c1ccccc1C(F)(F)F`
Solution: 2.08^[a]

Problem: Return reported LogP; argument: `CCc1c(NC(=O)c2cccnc2C(F)F)cnn1-c1ccccc1C`
Solution: 2.18^[a]

Problem: Return reported LogP; argument: `O=C(Nc1cnn(-c2c(Cl)cccc2Cl)c1C(F)(F)F)c1cccnc1C(F)F`
Solution: 2.94^[a]

----------
Measured LogP values are reported for all entries that follow.
test: Log P by HPLC on reversed phase, method [a], acidic range (0.1% formic acid); type: physicochemical; details: LC-UV, 0.1% formic acid in water and acetonitrile

Use these answered entries as a reference point.
O=C(Nc1cnn(-c2cccc(C(F)(F)F)c2)c1-c1cccc(Cl)c1)c1cccnc1C(F)F    3.48^[a]
CCc1c(NC(=O)c2cccnc2C(F)F)cnn1C(CC)CC    2.20^[a]
CCc1c(NC(=O)c2cccnc2C(F)F)cnn1-c1ccc(C)cc1    2.34^[a]

We now examine a further compound.
Problem: Return reported LogP; argument: `O=C(Nc1cnn(-c2ccc(F)cc2)c1Br)c1cccnc1C(F)F`
Solution: 2.17^[a]
